Test system: Aspergillus niger
runDescription: Antifungal activity against Aspergillus niger after 48 to 72 hrs by broth microdilution method
Format: functional
Hi! Could you tag entries with MIC below 30 µg/mL as yes (1), and those at or above as no (0)? Much appreciated.

Consider the following illustrative entries.
# substanceSmiles, group
data = [
    ("Cc1cccc(NS(=O)(=O)c2cc3c(CN=[N+]=[N-])cc(=O)oc3cc2C)c1", "yes (1)"),
    ("Cc1ccc(NS(=O)(=O)c2cc3c(CN=[N+]=[N-])cc(=O)oc3cc2C)c([N+](=O)[O-])c1", "no (0)"),
    ("Cc1cc2oc(=O)cc(CN=[N+]=[N-])c2cc1S(=O)(=O)Nc1ccc([N+](=O)[O-])cc1", "no (0)"),
    ("COc1cccc(NS(=O)(=O)c2cc3c(CN=[N+]=[N-])cc(=O)oc3cc2C)c1", "yes (1)"),
]

Kindly consider the entry below.
**Query** Say whether its MIC is strictly beneath 30 µg/mL. Entry: Cc1cc2oc(=O)cc(CN=[N+]=[N-])c2cc1S(=O)(=O)Nc1c(C)cccc1C
**Result** yes (1)

====

MIC values by entry
Tested on: Enterococcus faecalis
runDescription: Antibacterial activity against Streptococcus faecalis MTCC 3382 after 18 hrs by broth microdilution method
Type: functional
conditionSet: MTCC 3382, 18 h
Entry rule: numbers only, all in µg/mL.

# substanceSmiles, studySystem, unitDescriptor, MIC
data = [
    ("Cc1cc2oc(=O)cc(CN=[N+]=[N-])c2cc1S(=O)(=O)Nc1cccc(Cl)c1", "Enterococcus faecalis", "µg/mL", 8),
    ("Cc1cc2oc(=O)cc(CN=[N+]=[N-])c2cc1S(=O)(=O)Cl", "Enterococcus faecalis", "µg/mL", 31.2),
]

Could you now consider this next compound?
Here Cc1cc([N+](=O)[O-])ccc1NS(=O)(=O)c1cc2c(CN=[N+]=[N-])cc(=O)oc2cc1C was tested on Enterococcus faecalis, and its MIC came to 4
